This collection of values is drawn from ChEMBL document CHEMBL1154759.

target: Glycogen synthase kinase-3 beta (Homo sapiens, UniProt P49841); assay: Inhibition of human recombinant GSK3-beta
Sequence (P49841 whole entry): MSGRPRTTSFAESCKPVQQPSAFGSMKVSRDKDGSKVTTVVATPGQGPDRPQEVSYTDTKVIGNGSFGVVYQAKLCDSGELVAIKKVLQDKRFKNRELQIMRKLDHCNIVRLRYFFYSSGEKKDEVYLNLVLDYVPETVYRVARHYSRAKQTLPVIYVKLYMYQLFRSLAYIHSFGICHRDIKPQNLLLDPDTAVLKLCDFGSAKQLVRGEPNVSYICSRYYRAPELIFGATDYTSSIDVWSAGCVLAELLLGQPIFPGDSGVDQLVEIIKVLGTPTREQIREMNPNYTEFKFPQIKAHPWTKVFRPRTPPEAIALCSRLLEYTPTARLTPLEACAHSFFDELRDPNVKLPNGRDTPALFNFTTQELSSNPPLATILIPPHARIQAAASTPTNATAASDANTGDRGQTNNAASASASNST
pIC50: −log10 of the molar value.
measurement_name: pIC50

[
  {
    "line_notation": "COc1cc2c(C)cc3c(c2cc1OC)C(=O)NC3=O",
    "pIC50": 6.57
  }
]

a: COC(=O)c1cccc2c3c(c(CC(C)C)cc12)C(=O)NC3=O
b: CCc1cc2c(c3cc(OC)c(OC)cc13)C(=O)NC2=O
Q: So which one has the bigger pIC50 here, a or b ? Returns: label corresponding to the selected item.
Ans: b
(b: 7.04, a: 6.31)
